Taken from PubChem BioAssay AID1851.

# study-target: Cytochrome P450 2C19 (Homo sapiens) (UniProt P33261)
# Sequence (P33261 whole entry, looked up): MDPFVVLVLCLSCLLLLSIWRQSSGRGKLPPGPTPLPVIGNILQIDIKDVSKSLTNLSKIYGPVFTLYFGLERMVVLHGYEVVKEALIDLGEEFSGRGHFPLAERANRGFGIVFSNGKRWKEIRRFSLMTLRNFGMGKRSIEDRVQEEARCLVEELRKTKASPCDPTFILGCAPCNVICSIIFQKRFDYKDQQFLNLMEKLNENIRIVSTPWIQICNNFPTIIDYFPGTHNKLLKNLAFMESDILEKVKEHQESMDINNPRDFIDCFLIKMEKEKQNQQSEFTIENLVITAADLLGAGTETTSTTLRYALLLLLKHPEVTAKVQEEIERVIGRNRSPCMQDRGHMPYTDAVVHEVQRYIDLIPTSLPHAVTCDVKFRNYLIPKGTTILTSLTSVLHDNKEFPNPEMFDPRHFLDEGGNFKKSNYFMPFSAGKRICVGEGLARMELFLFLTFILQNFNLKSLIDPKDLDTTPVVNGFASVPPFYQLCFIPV
# experimental-details: Cytochrome panel assay with activity outcomes
# conditions: recombinant CYP, pro-luciferin dealkylation, luminescence, p450-cyp2c19; series mostly up to 57.1 µM
Hit rate of the full screen: of about 16,000 compounds, about 5,800 (36%) were called active. Roughly 23% stayed inconclusive and do not appear here. Calls come from the whole dose curve; as a rule, active = well fitted curve in the direction sought with a large enough effect; inconclusive = small, poorly fitted or top-dose-only effect, or effect the other way; inactive = no such curve, though single readings can be large or run the other way. The list shows a part of the results.
# valid calls are active, inactive; nothing else

Task: Lab log entry: O=[N+]([O-])c1cc(O)c(O)c([N+](=O)[O-])c1 — outcome as called in the assay?
Result: inactive

====

Let's look at some molecules and their measured activity, negative = inhibition.
# study-target: Cytochrome P450 2C19 (Homo sapiens) (UniProt P33261)
# experimental-details: Cytochrome panel assay with activity outcomes; for activity, negative = inhibition: % is set by controls: 0 for no effect and ±100 for the full control effect
# conditions: recombinant CYP, pro-luciferin dealkylation, luminescence, p450-cyp2c19; series mostly up to 57.1 µM
The campaign covered roughly 16,000 compounds. About 5,800 (36%) were called active. Another 23% or so got no clear call; they are omitted. Some of the results follow.

Solved entries (count: 2):
molecule: c1ccc(CCN2CCOCC2)nc1
activity, negative = inhibition: 1.5% [at 11.4 µM] (inactive)
//
molecule: CC(=O)OC1=CC2=CC[C@H]3[C@H]4CCC(=O)[C@@]4(C)CC(=O)[C@]3(S)[C@]2(C)CC1
activity, negative = inhibition: -14.8% [at 11.4 µM] (inactive)

Task: Please provide the recorded activity, negative = inhibition for CCc1ccc(CCN2CCCCC2)nc1 , tested on Cytochrome P450 2C19 (Homo sapiens) (UniProt P33261).
Result: -27.8% [at 11.4 µM] (inactive)

Task: Please provide the recorded activity, negative = inhibition for O[C@@H](c1cc(-c2ccccc2)nc2c1ccc1ccccc12)[C@@H]1CCCCN1 , tested on Cytochrome P450 2C19 (Homo sapiens) (UniProt P33261).
Result: -42.2% [at 11.4 µM] (inactive)

Task: Please provide the recorded activity, negative = inhibition for O=C(CCN1CC2CCC(CC2)C1)c1cccs1 , tested on Cytochrome P450 2C19 (Homo sapiens) (UniProt P33261).
Result: -19% [at 11.4 µM] (inactive)

Task: Please provide the recorded activity, negative = inhibition for O=C(NCP(=O)(O)O)c1cccnc1 , tested on Cytochrome P450 2C19 (Homo sapiens) (UniProt P33261).
Result: 26.5% [at 11.4 µM] (inactive)

Task: Please provide the recorded activity, negative = inhibition for CC(C)[C@]1(O)[C@@H](OC(=O)c2ccc[nH]2)[C@]2(O)[C@@]3(C)C[C@@]4(O)O[C@@]5([C@H](O)[C@@H](C)CC[C@]35O)[C@]2(O)[C@]41C , tested on Cytochrome P450 2C19 (Homo sapiens) (UniProt P33261).
Result: 23.6% [at 11.4 µM] (inactive)

====

# study-target: Cytochrome P450 2C19 (Homo sapiens) (UniProt P33261)
# experimental-details: Cytochrome panel assay with activity outcomes
# conditions: recombinant CYP, pro-luciferin dealkylation, luminescence, p450-cyp2c19; series mostly up to 57.1 µM
Screen size: about 16,000 compounds; about 5,800 (36%) were called active. Not shown: some 23% with an inconclusive outcome. Some of the results follow.
measure: AC50

Solved entries (count: 10):
molecule: CC(C)CN1CC[C@@]2(CCCN(C(=O)Oc3ccccc3)C2)C1
AC50: inactive
//
molecule: OC(c1ccccc1)(c1ccccc1)C1CCNCC1
AC50: inactive
//
molecule: CCCn1c(=O)c2[nH]c(C3CCCC3)nc2n(CCCOC(=O)c2ccc(S(=O)(=O)F)cc2)c1=O
AC50: inactive
//
molecule: S=C=Nc1cccc(C2(N3CCCCC3)CCCCC2)c1
AC50: inactive
//
molecule: CC[N+](CC)(CCCNC1=CC(=O)C(NCCC[N+](CC)(CC)Cc2ccccc2)=CC1=O)Cc1ccccc1
AC50: inactive
//
molecule: CCN(CC)CCO[C@H]1CC[C@@]2(C)C(=CC[C@@H]3[C@H]2CC[C@]2(C)C(=O)CC[C@H]32)C1
AC50: inactive
//
molecule: CN1C(=O)C(=Cc2ccccc2Oc2ccc(Cl)c(F)c2)C(=O)N(C)C1=O
AC50: 3.55 µM (active)
//
molecule: C=C(C)[C@H]1CC[C@]2(C(=O)O)CC[C@]3(C)[C@@H](CC[C@H]4[C@@]5(C)CC[C@@H](O)C(C)(C)[C@@H]5CC[C@@]43C)[C@H]12
AC50: inactive
//
molecule: COC(=O)c1cc2c(cn1)[nH]c1ccccc12
AC50: 3.98 µM (active)
//
molecule: CN[C@H](Cc1ccccc1)c1cccc(OC)c1O
AC50: 2 µM (active)

Let us move to another entry and its AC50.
Task: Please provide the recorded AC50 for N[C@H](Cc1ccc(N(CCCl)CCCl)cc1)C(=O)O , tested on Cytochrome P450 2C19 (Homo sapiens) (UniProt P33261).
Result: inactive

====

# study-target: Cytochrome P450 2C19 (Homo sapiens) (UniProt P33261)
# experimental-details: Cytochrome panel assay with activity outcomes
# conditions: recombinant CYP, pro-luciferin dealkylation, luminescence, p450-cyp2c19; series mostly up to 57.1 µM
Among all 16,000 compounds or so, about 5,800 (36%) were called active. Another 23% or so got no clear call; they are omitted. The call rests on the fitted dose curve; in most records, active means well fitted curve in the direction sought with a large enough effect; inconclusive means small, poorly fitted or top-dose-only effect, or effect the other way; inactive means no such curve, though single readings can be large or run the other way. This is one part of the list.
# valid calls are TRUE (active), FALSE (inactive); nothing else

See these solved cases before continuing.
smiles-str: Cc1ccc(OP(=O)(Oc2ccc(C)cc2)N2C=Cc3ccccc3[C@H]2C#N)cc1
qualitative-label: TRUE
//
smiles-str: Ic1ccccc1CN[C@@H]1C2CCN(CC2)[C@H]1C(c1ccccc1)c1ccccc1
qualitative-label: FALSE
//
smiles-str: NC(=O)CN1C[C@@H](O)CC1=O
qualitative-label: FALSE

Task: Lab log entry: CC(C)CN1CCC2(CC1)CCN(C(=O)Oc1ccccc1)CC2 — outcome as called in the assay?
Result: FALSE

Task: Lab log entry: NO — outcome as called in the assay?
Result: FALSE

Task: Lab log entry: Cn1c(O)c(C(c2ccccn2)c2c(O)n(C)c(=S)n(C)c2=O)c(=O)n(C)c1=S — outcome as called in the assay?
Result: FALSE

====

# study-target: Cytochrome P450 2C19 (Homo sapiens) (UniProt P33261)
# experimental-details: Cytochrome panel assay with activity outcomes
# conditions: recombinant CYP, pro-luciferin dealkylation, luminescence, p450-cyp2c19; series mostly up to 57.1 µM
# Protocol: The P450 gene superfamily is involved in the metabolism and clearance of xenobiotics. This assay used various human CYP P450 isozymes to measure the dealkylation of various pro-luciferin substrates to luciferin. The luciferin is then measured by luminescence after the addition of a luciferase detection reagent. […] Inhibitors and some substrates limit the production of luciferin, and decrease measured luminescence. […] 8, Detection, 1 sec, ViewLux luminescent read […]
Out of some 16,000 compounds screened, about 5,800 (36%) were called active. Roughly 23% stayed inconclusive and do not appear here. The call rests on the fitted dose curve; in most records, active means well fitted curve in the direction sought with a large enough effect; inconclusive means small, poorly fitted or top-dose-only effect, or effect the other way; inactive means no such curve, though single readings can be large or run the other way. Some of the results follow.
# valid calls are y for active, n for inactive; nothing else

molecule: O=c1[nH]c(=O)n([C@H]2C[C@H](O)[C@H](CO)O2)cc1/C=C\Br
qualitative-label: n

molecule: CCCN(C/C=C\I)[C@@H]1CCc2ccc(O)cc2C1
qualitative-label: y

molecule: CS(=N)(=O)CC[C@@H](N)C(=O)O (stereo partly drawn)
qualitative-label: n

molecule: CCCCc1nc2ccccc2c(=O)n1-c1ccccc1[N+](=O)[O-]
qualitative-label: y

molecule: CN1CCN(c2cc(N3CCCC3)c([N+](=O)[O-])cc2F)CC1
qualitative-label: y

molecule: COC(=O)C[C@](O)(CCCC(C)(C)O)C(=O)O[C@@H]1C(OC)=C[C@]23CCCN2CCc2cc4c(cc2[C@H]13)OCO4
qualitative-label: n

molecule: COC1=C[C@H]2C3=C([C@H]2C1=O)[C@H](NC(C)=O)CCc1cc(OC)c(OC)c(OC)c13
qualitative-label: n

Turning now to a further record.
Task: Lab log entry: CC[N+](C)(C)c1cccc(O)c1 — outcome as called in the assay?
Result: n

====

# study-target: Cytochrome P450 2C19 (Homo sapiens)
# experimental-details: Cytochrome panel assay with activity outcomes
# conditions: recombinant CYP, pro-luciferin dealkylation, luminescence, p450-cyp2c19; series mostly up to 57.1 µM
Out of some 16,000 compounds screened, about 5,800 (36%) were called active. About 23% were inconclusive and are not listed. Calls come from the whole dose curve; as a rule, active = well fitted curve in the direction sought with a large enough effect; inconclusive = small, poorly fitted or top-dose-only effect, or effect the other way; inactive = no such curve, though single readings can be large or run the other way. The list shows a part of the results.
# valid calls are label 1 (active), label 0 (inactive); nothing else

See these solved cases before continuing.
smiles-str: COc1ccc2c(c1OC)C(=O)O[C@H]2[C@H]1c2cc3c(cc2CCN1C)OCO3
qualitative-label: label 1
//
smiles-str: O=C(Nc1ccccc1)N1CCC2(CC1)CCN(C(=O)Oc1ccccc1)CC2
qualitative-label: label 0
//
smiles-str: O=C(Nc1cccc(F)c1)N1CC2(CCNCC2)C1
qualitative-label: label 0

Task: Lab log entry: O=C(Nc1cccc(F)c1)N1CC2(CCN(C(=O)Oc3ccccc3)CC2)C1 — outcome as called in the assay?
Result: label 0

Task: Lab log entry: Nc1nc(OCc2ccccc2)c2[nH]cnc2n1 — outcome as called in the assay?
Result: label 1

Task: Lab log entry: O=C1CS[C@@H](c2ccccc2Cl)c2cc(Cl)ccc2N1 — outcome as called in the assay?
Result: label 1
